Tested on: LOC_OS01G48390-cb002
Assay: thermal shift delta Tm vs DMSO control; higher = stronger stabilization (binding);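 further: purified Escherichia coli-expressed rice kinase domain construct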
Settings: 12.5 µM; protein concentration 2 µM
Entries and their thermal shift delta Tm values follow.
Respond with the bare value in °C.

-- ask Which thermal shift delta Tm value is on record for "Cc1cc(Nc2nc(N[C@@H](C)c3ncc(F)cn3)ncc2Cl)[nH]n1" ?
-- reply 6.25

-- ask Cool, now "Oc1c2ccccc2c2c3c(cccc13)N=N2"
-- reply 5.42

-- ask Cool, now CN1CC[C@H](c2c(O)cc(O)c3c(=O)cc(-c4ccccc4Cl)oc23)[C@H](O)C1 [Flavopiridol (Alvocidib)]
-- reply 0.03

-- ask Cool, now CO[C@H]1C[C@@H]2CC[C@@H](C)[C@@](O)(O2)C(=O)C(=O)N2CCCC[C@H]2C(=O)O[C@H]([C@H](C)C[C@@H]2CC[C@@H](OCCO)[C@H](OC)C2)CC(=O)[C@H](C)/C=C(\C)[C@@H](O)[C@@H](OC)C(=O)[C@H](C)C[C@H](C)/C=C/C=C/C=C/1C [Everolimus (RAD001)]
-- reply 0.33

-- ask Cool, now "CC(C)CC(=O)Nc1n[nH]c2c1CN(C(=O)C1CCN(C)CC1)C2(C)C"
-- reply 0.75

-- ask Cool, now "CCn1c(C(=O)N(C2CC2)C2CC2)cc2c3c(ncn3C)c(Nc3cc(C)n(C)n3)nc21"
-- reply 0.34

-- ask Cool, now "CCS(=O)(=O)N1CC(CC#N)(n2cc(-c3ncnc4[nH]ccc34)cn2)C1"
-- reply 0.14

-- ask Cool, now Cc1nc(-c2cn3c(n2)-c2ccc(-c4cnn(C(C)(C)C(N)=O)c4)cc2OCC3)n(C(C)C)n1 [Taselisib (GDC 0032)]
-- reply 0.45

-- ask Cool, now "CCOc1ccn(-c2ccc(F)cc2)c(=O)c1C(=O)Nc1ccc(Oc2ccnc(N)c2Cl)c(F)c1"
-- reply 2.33

-- ask Cool, now "Nc1cccc(S(=O)(=O)N2CCCN(S(=O)(=O)c3ccc4c(c3)OCCO4)CC2)c1"
-- reply 3.24

###

System: LOC_OS05G16824-cb004
Experiment: thermal shift delta Tm vs DMSO control; higher = stronger stabilization (binding)
Details: 12.5 µM; protein concentration 2 µM
Entries and their thermal shift delta Tm values follow.
Respond with the bare value in °C.

| compound | units_symbol | value |
| --- | --- | --- |
| Cc1ccc(C(=O)Nc2cccc(C(F)(F)F)c2)cc1Nc1nc(-c2cccnc2)nc2c1cnn2C | °C | -1.61 |
| COc1cc(Nc2ncc(F)c(Nc3ccc4c(n3)N(COP(=O)(O)O)C(=O)C(C)(C)O4)n2)cc(OC)c1OC [Fostamatinib (R788)] | °C | 12 |
| COc1cc(Nc2ncc(F)c(Nc3ccc4c(n3)N(COP(=O)(O)O)C(=O)C(C)(C)O4)n2)cc(OC)c1OC [R788 (Fostamatinib) Disodium] | °C | 6.19 |
| Cc1csc(-c2nnc(Nc3ccc(Oc4ncccc4-c4ccnc(N)n4)cc3)c3ccccc23)c1 | °C | 1.04 |
| N#CC1(c2ccc(NC(=O)c3cccnc3NCc3ccncc3)cc2)CCCC1 | °C | -5.15 |
| CN(C)C/C=C/C(=O)Nc1ccc(C(=O)Nc2cccc(Nc3ncc(Cl)c(-c4c[nH]c5ccccc45)n3)c2)cc1 | °C | 11.9 |
| Cc1ccc(F)c(NC(=O)Nc2ccc(-c3cccc4[nH]nc(N)c34)cc2)c1 | °C | 1.86 |

-- ask Which thermal shift delta Tm value is on record for "Cc1cc([C@@H](C)Nc2ccccc2C(=O)O)c2nc(N3CCOCC3)cc(=O)n2c1" ?
-- reply -0.08
